Tested on: SNB-75 CNS
experiment.summary: NCI tumour cell line growth inhibition, 48 h
measured.property: TGI

1. O=c1oc2cc(O)ccc2cc1-c1nc2ccccc2o1 | > 100 µM
2. O=C1/C(=C/c2ccc([N+](=O)[O-])s2)Oc2ccc(Br)cc21 | 4.17 µM
3. CCCCCCCCCCCCNC(=S)OCCCC | > 100 µM
4. Cc1ccc(C)c(NC(=O)C(=O)C(C2C(C)CC(=O)C2CC(=O)O)[N+](=O)[O-])c1 (stereo unspecified) | > 100 µM
5. O=C(O)c1cc(-c2ccc3cc(O)c(O)cc3c2)ccc1O | > 12.5 µM
6. CC(C)CC1C(=O)OC(C)(C)OC1=O | > 100 µM
7. O=C(CC(=O)n1nc(-c2ccccc2)c(N=Nc2ccc([N+](=O)[O-])cc2)c1-c1ccccc1)Nc1ccc(Cl)cc1 | > 100 µM
8. C[C@]12CC/C(=N\OCCN3CCCC3)C=C1CCC1C2CC[C@@]2(C)C1CC[C@]2(C)O (stereo partly specified) | 11.9 µM
9. COc1cc(CNc2ccc(C)cc2)cc(OC)c1OC | > 100 µM
10. CCn1cnc(C[C@H](NC(=O)[C@@H](NC(=O)Nc2cc(C(F)(F)F)cc(C(F)(F)F)c2)C(C)(C)C)C(=O)OC)c1 | > 10 µM
11. CC(=O)NC1=C(NCCO)C(=O)c2ccccc2C1=O | > 50 µM
12. O=S(=O)(c1ccccc1)C1(C2(S(=O)(=O)c3ccccc3)CCN=N2)CCN=N1 (stereo unspecified) | > 100 µM
13. CCSc1c2cc(OC)ccc2nc2ccc(OC)cc12 | 40.3 µM
14. Nc1ncnc2occ(-c3ccc(NC(=O)Nc4cccc(C(F)(F)F)c4)cc3)c12 | 9.69 µM
15. Cc1nc2sc(C(=O)Nc3cccc4c3OCCO4)c(N)c2cc1C(C)O (stereo unspecified) | > 100 µM
16. CC(Oc1ccc(Cl)cc1Cl)C(=O)NN1C(=O)CC(=O)NC1=S (stereo unspecified) | > 100 µM
17. Cc1ccccc1-c1cc(=O)c2cc(C)c(C)c(C(=O)O)c2o1 | > 100 µM
18. N#Cc1ccccc1NC(=O)C(O)C(O)C(O)C(O)C=O (stereo unspecified) | > 100 µM
19. CC1=C(C(=O)Nc2cc(F)c(F)cc2F)C(c2ccc(N(C)C)cc2)C(C(=O)Nc2cc(F)c(F)cc2F)=C(C)N1 | 48.1 µM
20. C=CCC(NCc1ccccc1)c1cn(C(=O)OCC)c2ccccc12 (stereo unspecified) | > 100 µM
21. Cc1c(C(=O)Nc2ccc(Oc3ccnc4cc(OCC(C)(C)O)ccc34)c(F)c2)c(=O)n(-c2ccccc2)n1C | > 100 µM

###

Tested on: OVCAR-5 ovarian
experiment.summary: NCI tumour cell line growth inhibition, 48 h
measured.property: TGI

1) CC(C)CC1CC2C(=O)N(c3ccccc3)C(=O)C2c2[nH]c3ccccc3c21 (stereo unspecified) | > 100 µM
2) CCc1n(Cc2ccc3ccccc3c2)cc[n+]1Cc1ccc2ccccc2c1 | 2.75 µM
3) O=[N+]([O-])/C(C(Cl)=C(Cl)Cl)=C(\NCc1ccccc1)Sc1ccccc1 | > 100 µM
4) CN(C)/C=N/S(=O)(=O)c1nn2c(C=O)c(-c3ccc(-c4ccccc4)cc3)nc2s1 | 25.3 µM
5) COc1cccc(/C=C2\COc3ccc(O)c(O)c3C2=O)c1OC | 13.6 µM
6) C=C(Cl)C(Cl)(CBr)CCCC(C)C (stereo unspecified) | 35.6 µM
7) CC(C)(C)C1CC[C@H](O)[C@H]([C@@H](O)CC2CC(=O)N(c3ccccc3)C(=O)C2)C1 (stereo partly specified) | > 100 µM
8) Cc1ccnn1CCc1ccc(Cl)cc1Cl | > 100 µM
9) NNC(=S)N/N=C(\c1nc2ccc(Cl)cc2[nH]c1=O)C(O)c1cccc([N+](=O)[O-])c1 (stereo unspecified) | > 100 µM
10) C=CCNC(=S)NC=C(C(N)=O)C(N)=O | > 100 µM
11) O=C(Nc1cccc2[nH]c(C(F)(F)F)nc12)c1ccc(Br)cc1F | 23.5 µM
12) O=C1/C(=C/c2ccccc2)CN(C(=O)/C=C/c2ccccc2)C/C1=C\c1ccccc1 | 45.2 µM
13) Cc1nsc2cc(Cl)n(C)c(=O)c12 | > 100 µM
14) O=c1c2cc([N+](=O)[O-])ccc2[nH]n1Cc1ccccc1Cl | > 100 µM
15) COc1cc(Br)c(/C=N/N=C(\N)NO)cc1OC | > 100 µM
16) O=[N+]([O-])C(=C1c2ccccc2-c2ccccc21)[N+](=O)[O-] | > 100 µM
17) COC(=O)C1=CCC[C@H]2[C@@]1(COC(C)=O)CC[C@@H](C)[C@]2(C)CC(=O)c1ccoc1 | > 50 µM
18) O=C(c1ccsc1)c1nccc2c1cnc1ccccc12 | > 100 µM
19) COc1cc2c(cc1OCCCN1CCN(CCCOc3cc4c(cc3OC)C(=O)N3C[C@H](F)C[C@H]3C=N4)CC1)N=C[C@@H]1C[C@@H](F)CN1C2=O | 3.24 µM
20) COc1ccc2[nH]c(=O)cc(C)c2c1[N+](=O)[O-] | > 100 µM
21) O=C1c2ccccc2-n2c1nc1ccc([N+](=O)[O-])cc1c2=O | > 100 µM

###

Test system: SN12C renal
experiment.summary: NCI tumour cell line growth inhibition, 48 h; in the data active = GI50 below about 0.43 µM; inactive = the rest
Classes used: T = active, F = inactive

1. C[C@H]1CCC/C=C/[C@@H]2C[C@H](O)C[C@H]2[C@H](O)C(O)C(O)C(=O)O1 (stereo not given in full) | F
2. COc1cc(/C=C/C(=O)c2cccc(-n3cc(-c4ccccc4)[nH]c3=O)c2)ccc1O | F
3. COc1cccc(/C=C2\COc3ccc(O)c(O)c3C2=O)c1OC | F
4. COc1cccc(C2=C(c3cn(C)c4c(C)cccc34)C(=O)NC2=O)c1 | F
5. CCOC(=O)c1ccc(N[C@@H]2c3cc4c(cc3C(c3cc(OC)c(O)c(OC)c3)[C@H]3C(=O)OCC32)OCO4)cc1 (stereo not given in full) | T

###

Reported GI50 values are given for each entry in this list.
Test system: M14 melanoma
experiment.summary: NCI tumour cell line growth inhibition, 48 h
measured.property: GI50

1) COc1cc(CNc2ccc(C)cc2)cc(OC)c1OC | 0.124 µM
2) O=NN(CC(=O)NNc1ccccc1)CC(=O)NNc1ccccc1 | 3.8 µM
3) CC[C@@]1(O)C(=O)OCc2c1cc1n(c2=O)Cc2cc3c(N)c(OC)ccc3nc2-1 | 0.0403 µM
4) O=C1C=CC(=O)N1c1ccc2ccccc2c1 | 14.5 µM
5) CCOC(=O)c1c(C)n(Cc2ccc(Cl)cc2Cl)c2c1cc(O)c1[nH]c(Cc3ccccc3)nc12 | 11 µM
6) C=CCn1c(C)nc2cc(Nc3nc(N4CCCC4)nc4nc[nH]c34)ccc21 | 29.6 µM
7) COC(=O)c1ccc(C)cc1C1CN=NC12Cc1c(C)cccc1C2=O (centres undefined) | 25.9 µM
8) N#C/C(=C\c1ccccn1)c1nc2ccccc2o1 | 30.7 µM
9) COc1cc(/C=C/C(=O)c2cccc(-n3cc(-c4ccccc4)[nH]c3=O)c2)ccc1O | 3.57 µM
10) Nc1ccccc1SC(CC(=O)c1ccccc1)c1c(Cl)cccc1Cl (centres undefined) | 3.25 µM
11) O=C1/C(=C/c2ccc([N+](=O)[O-])s2)Oc2ccc(Br)cc21 | 0.423 µM
12) Cc1nc2sc(C(=O)Nc3cccc4c3OCCO4)c(N)c2cc1C(C)O (centres undefined) | 3.01 µM
13) CCCOC(=O)C1C(c2ccc(OC)cc2)NC(c2ccc(OC)cc2)C(C(=O)OCCC)S1(=O)=O (centres undefined) | > 100 µM
14) O=C(/C=C/c1cccc(Cl)c1)c1ccccc1 | 3.78 µM

###

Tested on: EKVX NSCLC
experiment.summary: NCI tumour cell line growth inhibition, 48 h
measured.property: TGI

1) CCOC(=O)c1nc2sc(Cl)cn2c1/C=N/N=C(N)N | 61.6 µM
2) CCOc1ccc(NC(=O)/C=C/c2ccco2)cc1 | > 100 µM
3) CCOC1OC(CO[Si](C)(C)C(C)(C)C)C(O)CC1n1ccc(=O)[nH]c1=O (configuration not stated) | > 100 µM
4) COc1cc(/C=C/C(=O)c2cccc(-n3cc(-c4ccccc4)[nH]c3=O)c2)ccc1O | 36.3 µM
5) CC(C)(C)C1CC[C@H](O)[C@H]([C@@H](O)CC2CC(=O)N(c3ccccc3)C(=O)C2)C1 (some centres not stated) | > 100 µM
6) Nc1ccc(C(=O)NN2C(=O)C(Cl)C2c2ccc(O)cc2)cc1 (configuration not stated) | 36.1 µM
7) N#Cc1ccc(N=NN2CCCC2)cc1 | > 100 µM
8) COC(=O)N1C=CC2=C(C)C3Nc4ccccc4C3C(C)=C2C1 (configuration not stated) | > 100 µM
9) CN(C)Cc1cc(C(=O)/C=C/c2ccc(Cl)cc2Cl)cc(CN(C)C)c1O | 19.7 µM
10) CCc1cccc(CC)c1Nc1nc(-c2ccccc2-c2ccccc2)cs1 | > 100 µM
11) COc1cc(C2c3cc4c(cc3[C@@H](Nc3cnc5ccccc5c3)C3COC(=O)[C@H]23)OCO4)cc(OC)c1O (some centres not stated) | 9.09 µM
12) CN(C)/C=N/S(=O)(=O)c1nn2c(C=O)c(-c3ccc(-c4ccccc4)cc3)nc2s1 | 19.8 µM

Origin of values: PubChem BioAssay (NCI)
